The values you see were collected from PubChem BioAssay AID2060898.

# System: 616215-338-R-J1-PDC complex spheroid viability;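 note: spheroids exposed to agents for seven days before viability readout; 100% = DMSO vehicle control viability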
# PROCEDURE TEXT: Anticancer human tumor 616215-338-R-J1-PDC patient-derived colon adenocarcinoma cell line growth inhibition [RAS]
# CONDITION SET: second compound 0.316 µM; first compound 3.16 µM; hits give low values
Entries annotated with measured viability, T/C
The reply should be a number in %, with the unit left off.

CCC(CC)c1cc(NC2CCC(N)C2)n2nccc2n1 (stereo unspecified) + C#Cc1c(F)ccc2cc(O)cc(-c3ncc4c(N5CC6CCC(C5)N6)nc(OCC56CCCN5CC(F)C6)nc4c3F)c12 :: 0.21

Lookup: viability, T/C / 616215-338-R-J1-PDC complex spheroid viability / CC(C)NCC(C(=O)N1CCN(c2ncnc3c2C(C)CC3O)CC1)c1ccc(Cl)cc1 (stereo unspecified) + C=CC(=O)N1CCN(c2nc(OCC3CCCN3C)nc3c(F)c(-c4nc(N)cc(C)c4C(F)(F)F)c(Cl)cc23)C(C)C1 93.4

Lookup: viability, T/C / 616215-338-R-J1-PDC complex spheroid viability / C[C@@H](NC(=O)c1ncnc(N)c1Cl)c1ncc(C(=O)Nc2cc(C(F)(F)F)c(Cl)cn2)s1 + C=CC(=O)N1CCN(c2nc(OCC3CCCN3C)nc3c(F)c(-c4nc(N)cc(C)c4C(F)(F)F)c(Cl)cc23)C(C)C1 116

Lookup: viability, T/C / 616215-338-R-J1-PDC complex spheroid viability / CC(Nc1ccc2c(c1)OCCn1cc(N3C(=O)OCC3C(F)F)nc1-2)C(N)=O (stereo unspecified) + C#Cc1c(F)ccc2cc(O)cc(-c3ncc4c(N5CC6CCC(C5)N6)nc(OCC56CCCN5CC(F)C6)nc4c3F)c12 101

Lookup: viability, T/C / 616215-338-R-J1-PDC complex spheroid viability / CC(=O)OC12COC1CC(O)C1(C)C(=O)C(O)C3=C(C)C(OC(=O)C(O)C(NC(=O)OC(C)(C)C)c4ccccc4)CC(O)(C(OC(=O)c4ccccc4)C21)C3(C)C (stereo unspecified) + C=CC(=O)N1CCN(c2nc(OCC3CCCN3C)nc3c(F)c(-c4nc(N)cc(C)c4C(F)(F)F)c(Cl)cc23)C(C)C1 20.8

Lookup: viability, T/C / 616215-338-R-J1-PDC complex spheroid viability / CC(Nc1ccc2c(c1)OCCn1cc(N3C(=O)OCC3C(F)F)nc1-2)C(N)=O (stereo unspecified) + C=CC(=O)N1CCN(c2nc(OCC3CCCN3C)nc3c(F)c(-c4nc(N)cc(C)c4C(F)(F)F)c(Cl)cc23)C(C)C1 103
